All values here come from PubChem BioAssay (NCI).

# Tested on: SF-295 CNS
# MEASUREMENT_DESCRIPTION: NCI tumour cell line growth inhibition, 48 h

| COMPOUND | GI50 |
| --- | --- |
| C/C1=C\CC[C@@](C)(O)[C@@H]2CC3[C@@H](OC(=O)C34CC4)[C@@H](O2)[C@H](C)CCC1 (stereo partly drawn) | 17.3 µM |
| CCc1c[nH]c2ncnc(N3CC[C@@](N)(CNC(=O)c4ccc(F)cc4F)C3)c12 | 26.2 µM |
| CC(=O)OC1C2(CC3N4C(=O)C5(CO)SSC4(CC31O)C(=O)N5C)OC(C)C(C)(C)C2=O (stereo not drawn) | 1.96 µM |

###

# System: EKVX NSCLC
# MEASUREMENT_DESCRIPTION: NCI tumour cell line growth inhibition, 48 h
# TGI listing for each entry below
METRIC: TGI

| COMPOUND | METRIC | RESULT |
| --- | --- | --- |
| Cc1cc(NS(=O)(=O)c2ccc(Nc3c4ccccc4nc4ccc(C(=O)Nc5ccc(S(=O)(=O)N=C(N)N)cc5)cc34)cc2)no1 | TGI | > 100 µM |
| Cc1ccc(-c2n[nH]c(=O)[nH]2)cc1 | TGI | > 100 µM |
| CCO[C@@H]1C2C=CC(C2)[C@H]1[N+](=O)[O-] (stereo partly specified) | TGI | > 100 µM |
| O=C(Nc1ccc([N+](=O)[O-])cc1)C(=O)C(C(=O)c1ccccc1F)C1OC(=O)c2ccccc21 (stereo unspecified) | TGI | > 100 µM |
| COc1ccc(NCC(=O)Nn2c(C)nc3ccc(S(=O)(=O)Nc4ccc(OC)cc4)cc3c2=O)cc1 | TGI | > 100 µM |
| CCc1c2c(nc3cccc(N)c13)-c1cc3c(c(=O)n1C2)COC(=O)[C@]3(O)CC | TGI | > 100 µM |
| CCc1cc2c(cc1CCCC(=O)O)CC1(Cc3ccc(C(=O)O)cc3C1)C2 (stereo unspecified) | TGI | > 100 µM |
| Nc1ccc(S(=O)(=O)c2ccc(NC(=O)c3cccnc3)cc2)cc1 | TGI | > 100 µM |
| CCOC(=O)C(O)(NC(=O)Nc1ccc(F)cc1)C(F)(F)F (stereo unspecified) | TGI | > 100 µM |
| CC(C)(C)OC(=O)CN1CCNCCN(CC(=O)OC(C)(C)C)CC1 | TGI | > 100 µM |
| O=[N+]([O-])/C(C(Cl)=C(Cl)Cl)=C1/OCCS1 | TGI | > 100 µM |

###

# Tested on: SK-MEL-2 melanoma
# MEASUREMENT_DESCRIPTION: NCI tumour cell line growth inhibition, 48 h
METRIC: GI50

| MOLECULE | ASSAYED_TARGET | METRIC | RESULT |
| --- | --- | --- | --- |
| N#CC1C(N)=NNC12Nc1ccccc1N2 (stereo not drawn) | SK-MEL-2 melanoma | GI50 | 15.1 µM |
| COC(=O)[C@@H]1CCCN1C(=O)[C@@H]1CCCN1C(=O)[C@@H](Cc1c[nH]c2ccccc12)NC(=S)Nc1cc(C(F)(F)F)cc(C(F)(F)F)c1 | SK-MEL-2 melanoma | GI50 | 2.49 µM |
| C=C[C@]1(C)C=C2C(=O)[C@@]3(O)OC[C@@]4(CCCC(C)(C)C43O)C2(O)C(O)C1 (stereo partly drawn) | SK-MEL-2 melanoma | GI50 | 12.4 µM |
